Source of measurements: ChEMBL document CHEMBL3407339

Each entry below carries its reported IC50.
# System: A549
# method summary: Antiproliferative activity against human A549 cells after 24 hrs by XTT assay
# Assay type: functional, cell-based
# test settings: A549, 24 h

input: Query: IC50; subject: Cc1ccc(C2=NN(c3nc(-c4ccc(Br)cc4)cs3)C(c3ccc(F)cc3)C2)s1 (centres undefined)
output: > 500 µg/mL

input: Query: IC50; subject: Cc1ccc(-c2csc(N3N=C(c4ccc(C)s4)CC3c3ccc(F)cc3)n2)cc1 (centres undefined)
output: > 500 µg/mL

input: Query: IC50; subject: Cc1ccc(C2=NN(c3nc(-c4ccc(F)cc4)cs3)C(c3ccc(F)cc3)C2)s1 (centres undefined)
output: 125 µg/mL

input: Query: IC50; subject: Cc1ccc(C2=NN(c3nc(-c4ccc(S(C)(=O)=O)cc4)cs3)C(c3ccc(F)cc3)C2)s1 (centres undefined)
output: > 500 µg/mL

input: Query: IC50; subject: N#Cc1ccc(-c2csc(N3N=C(c4ccc(Cl)s4)CC3c3ccc(F)cc3)n2)cc1 (centres undefined)
output: > 500 µg/mL

input: Query: IC50; subject: Fc1ccc(C2CC(c3ccc(Cl)s3)=NN2c2nc(-c3ccccc3)cs2)cc1 (centres undefined)
output: > 500 µg/mL

input: Query: IC50; subject: O=[N+]([O-])c1ccc(-c2csc(N3N=C(c4ccc(Cl)s4)CC3c3ccc(F)cc3)n2)cc1 (centres undefined)
output: > 500 µg/mL

input: Query: IC50; subject: Cc1ccc(C2=NN(c3nc(-c4ccc5c(c4)OCO5)cs3)C(c3ccc(F)cc3)C2)s1 (centres undefined)
output: 173 µg/mL

input: Query: IC50; subject: CS(=O)(=O)c1ccc(-c2csc(N3N=C(c4ccc(Cl)s4)CC3c3ccc(F)cc3)n2)cc1 (centres undefined)
output: > 500 µg/mL

###

# System: Salmonella typhimurium
# method summary: Mutagenicity in Salmonella typhimurium TA100 at 0.3125 mg/ml after 48 hrs by AMES MPF assay in presence of Sprague-Dawley rat liver microsomal S9 fraction relative to baseline
# Assay type: toxicity, organism-based
# test settings: salmonella enterica subsp. enterica serovar typhimurium
Each entry below carries its reported fold change (FC).
// response body must contain only the number

// worked examples, fold change (FC) included
Fc1ccc(C2CC(c3ccc(Cl)s3)=NN2c2nc(-c3ccc(Br)cc3)cs2)cc1 (stereo unspecified) ... 3.92
Fc1ccc(C2CC(c3ccc(Cl)s3)=NN2c2nc(-c3ccc(C(F)(F)F)cc3)cs2)cc1 (stereo unspecified) ... 2.31
Cc1ccc(C2=NN(c3nc(-c4ccc(C#N)cc4)cs3)C(c3ccc(F)cc3)C2)s1 (stereo unspecified) ... 0.94

input: Value wanted: fold change (FC) (Salmonella typhimurium) of entry Fc1ccc(C2CC(c3ccc(Cl)s3)=NN2c2nc(-c3ccc(Cl)cc3)cs2)cc1 (stereo unspecified)
output: 3.92

input: Value wanted: fold change (FC) (Salmonella typhimurium) of entry Fc1ccc(C2CC(c3ccc(Cl)s3)=NN2c2nc(-c3ccccc3)cs2)cc1 (stereo unspecified)
output: 3.23

input: Value wanted: fold change (FC) (Salmonella typhimurium) of entry Cc1ccc(C2=NN(c3nc(-c4ccc(S(C)(=O)=O)cc4)cs3)C(c3ccc(F)cc3)C2)s1 (stereo unspecified)
output: 0.73

###

Each entry below carries its reported fold change (FC).
# Tested on: Salmonella typhimurium
# method summary: Mutagenicity in Salmonella typhimurium TA100 at 0.3125 mg/ml after 48 hrs by AMES MPF assay in absence of Sprague-Dawley rat liver microsomal S9 fraction relative to baseline
# Type: toxicity, organism-based
# test settings: salmonella enterica subsp. enterica serovar typhimurium
// response body must contain only the number

// worked examples, fold change (FC) included
Cc1ccc(C2=NN(c3nc(-c4ccc(S(C)(=O)=O)cc4)cs3)C(c3ccc(F)cc3)C2)s1 (stereo unspecified) ... 1.04
Fc1ccc(C2CC(c3ccc(Cl)s3)=NN2c2nc(-c3ccc(Cl)cc3)cs2)cc1 (stereo unspecified) ... 0.67
Fc1ccc(C2CC(c3ccc(Cl)s3)=NN2c2nc(-c3ccc(C(F)(F)F)cc3)cs2)cc1 (stereo unspecified) ... 1
Fc1ccc(C2CC(c3ccc(Cl)s3)=NN2c2nc(-c3ccccc3)cs2)cc1 (stereo unspecified) ... 0.32
Cc1ccc(C2=NN(c3nc(-c4ccc(C#N)cc4)cs3)C(c3ccc(F)cc3)C2)s1 (stereo unspecified) ... 0.74

Next:
input: Query: fold change (FC); subject: Fc1ccc(C2CC(c3ccc(Cl)s3)=NN2c2nc(-c3ccc(Br)cc3)cs2)cc1 (stereo unspecified)
output: 1
